Kd for assorted binders
Measured on: T1, human PD-1.Fc (human, UniProt Q15116 25-170, limits assumed)
T1 construct: also called PD-1; Fc protein; PD-1.hFc; not shown: human IgG Fc fragment
Protocol text: SPR, antibody captured on protein A, PD-1.Fc in flow
Reply with just the number (in nM).

# annotated cases, reported Kd shown
NB215 (Fc fusion, not shown: IgG4 constant region of vector pCDNA3.4-IgG4) heavy: EVQVVESGGGLVQAGDSLRLSCAASGGTISGYEMGWFRQAPGKEREFVAGISRNGRSTGYSDSAKDRFTISRDNAKNTVYLQMNSLKPEDTAVYYCAAGLKADYGDSYVDTSTRNYNYWGQGTQVTVSS : 10.4
NB211 (Fc fusion, not shown: IgG4 constant region of vector pCDNA3.4-IgG4) heavy: EVQVVETGGGLAQAGGSLRLSCAASGRTFSGYTVGWYRQSPGKEREFVAAISYSGGSTDYADSVKGRFTISRDNANNTVYLQMGSLKAEDTAVYYCNRVIRGTRDPSIYYVMDYWGKGTLVTVSS : 1.33
NB223 (Fc fusion, not shown: IgG4 constant region of vector pCDNA3.4-IgG4) heavy: EVQLVESGGGLVQAGGSLRLSCAASGRTFSSYGMGWFRQAPGKEREFVAAVNWSNSSAYYADSVKDRFTISSDNAKSTIYLQMNSLKPEDTAVYYCRPYSDYVTYDPDDYDYWGQGTQVTVSS : 6.39
NB734 (Fc fusion, not shown: IgG4 constant region of vector pCDNA3.4-IgG4) heavy: QVQLVETGGGLVQAGGSLRLSCAASGDTILFSAVGWHRQAPGKERELVAAITNSGVTYYADSVKGRFSISRDNAKNTVYLQMNSLKPEDTAVYYCNAGAPPPGEFGYDESDYWGQGTQVTVSS : 0.292
NB532 (Fc fusion, not shown: IgG4 constant region of vector pCDNA3.4-IgG4) heavy: QVQLVETGGGLVQAGGSLRLSCAASGRTFSSYNMGWFRQAPGKEREFVAAISWSGGSQGYAAAVKDRFTISRDNAKNTVYLQMNSLKAEDTAVYYCAAKYHSGSYYYTSIRPEEYDYWGQGTQVTVSS : 7.03
NB182 (Fc fusion, not shown: IgG4 constant region of vector pCDNA3.4-IgG4) heavy: QVQLVESGGGLVQAGGSLRLSCAASGDTSFISAAGWYRQAPGKERELVAAITNTGITYYPDSVKGRFTISRDNAKNTVYLQMNNLKPEDTAVYYCNAGAPPPGGLGYDESDYWGQGTQVTVSS : 8.67
NB222 (Fc fusion, not shown: IgG4 constant region of vector pCDNA3.4-IgG4) heavy: QVQLVESGGGLVQAGGSLRLSCAASGGTFSNFNVGWFRQAPGKEREFVAASNWSAGTTHYSDSVKGRFTISRDNAANTAYLQMNSLRPDDTAVYYCNRVIRGTTYPDVYYGMDYWGKGTLVTVSS : 0.149

In: Could you tell me which Kd is on file for NB147 (Fc fusion, not shown: IgG4 constant region of vector pCDNA3.4-IgG4) heavy: EVQVVESGGGVVQAGDSLRLSCVASGRTFSSVAMGWFRQAPGKEREFVAAISRSGGSAGYSDSVKDRSTISRDNAKNTVYLQMNSLKPEDTAVYFCAASELDFCSTLGCYDYWGQGIQVTFSS ?
Out: 2.75

Taken from patent EP4269437A1.
